# TEST SYSTEM: UniProtKB P97266
# Sequence (P97266 whole entry): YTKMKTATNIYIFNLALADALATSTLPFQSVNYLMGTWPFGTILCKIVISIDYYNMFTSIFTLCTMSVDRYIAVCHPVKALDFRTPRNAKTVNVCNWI
# PROTOCOL DETAILS: Activity against mu opioid receptor by stimulation of [35S]GTP-gamma-S binding in CHO-hgamma cells
TEST READOUT: EC50 (nM)
All answers are understood in nM, so give the number only.

Completed entries (count: 6):
structure_smiles=Cc1cc(C(N)=O)cc(C)c1C[C@H](N)C(=O)N1CCCC[C@H]1c1nc(-c2ccccc2)c[nH]1 test_readout=EC50 measured_value=9
structure_smiles=NC(=O)c1ccc(C[C@H](N)C(=O)N2CCCC[C@H]2c2nc(-c3ccccc3)c[nH]2)cc1 test_readout=EC50 measured_value=100
structure_smiles=Cc1cc(C(N)=O)cc(C)c1C[C@H](N)C(=O)N1Cc2ccccc2C[C@H]1c1nc(-c2ccccc2)c[nH]1 test_readout=EC50 measured_value=161
structure_smiles=Cc1cc(O)cc(C)c1C[C@H](N)C(=O)N1Cc2ccccc2C[C@H]1c1nc(-c2ccccc2)c[nH]1 test_readout=EC50 measured_value=27
structure_smiles=Cc1[nH]c([C@@H]2CCCCN2C(=O)[C@@H](N)Cc2ccc(O)cc2)nc1-c1ccccc1 test_readout=EC50 measured_value=142
structure_smiles=NC(=O)c1ccc(C[C@H](N)C(=O)N2Cc3ccccc3C[C@H]2c2nc(-c3ccccc3)c[nH]2)cc1 test_readout=EC50 measured_value=155

We next turn to a different compound, shown below.
Challenge: Need EC50 of "Cc1cc(O)cc(C)c1C[C@H](N)C(=O)N1CCCC[C@H]1c1nc(-c2ccccc2)c[nH]1" , thanks.
Response given: 2

---

# TEST SYSTEM: Delta-type opioid receptor (Rattus norvegicus, UniProt P33533)
# Sequence (P33533 whole entry): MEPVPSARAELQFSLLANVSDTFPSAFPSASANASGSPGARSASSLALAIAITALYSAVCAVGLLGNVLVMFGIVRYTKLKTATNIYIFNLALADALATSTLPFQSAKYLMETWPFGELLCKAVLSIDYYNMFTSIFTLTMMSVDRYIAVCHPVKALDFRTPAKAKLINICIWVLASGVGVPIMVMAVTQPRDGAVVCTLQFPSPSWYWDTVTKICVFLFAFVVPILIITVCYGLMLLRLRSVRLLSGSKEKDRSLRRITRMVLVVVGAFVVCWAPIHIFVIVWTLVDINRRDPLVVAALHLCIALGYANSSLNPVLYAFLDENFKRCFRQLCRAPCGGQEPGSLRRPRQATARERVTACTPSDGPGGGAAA
# PROTOCOL DETAILS: Displacement of [3H]DPDPE from delta opioid receptor in rat brain
Some compounds, each annotated with its measured log10(Ki).
Friendly reminder: values = log10 of Ki, unit nM.

Completed entries (count: 3):
structure_smiles=NC(=O)c1ccc(C[C@H](N)C(=O)N2Cc3ccccc3C[C@H]2c2nc(-c3ccccc3)c[nH]2)cc1 test_readout=log10(Ki) measured_value=0.11
structure_smiles=Cc1cc(O)cc(C)c1C[C@H](N)C(=O)N1Cc2ccccc2C[C@H]1c1nc(-c2ccccc2)c[nH]1 test_readout=log10(Ki) measured_value=-1.00
structure_smiles=N[C@@H](Cc1ccc(C(=O)O)cc1)C(=O)N1Cc2ccccc2C[C@H]1c1nc(-c2ccccc2)c[nH]1 test_readout=log10(Ki) measured_value=3.72

Challenge: Need log10(Ki) of "CC(=O)c1ccc(C[C@H](N)C(=O)N2Cc3ccccc3C[C@H]2c2nc(-c3ccccc3)c[nH]2)cc1" , thanks.
Response given: 1.48

Challenge: Same thing, different compound: "Cc1cc(O)cc(C)c1C[C@H](N)C(=O)N1CCCC[C@H]1c1nc(-c2ccccc2)c[nH]1"
Response given: 0.28

Challenge: Same thing, different compound: "N[C@@H](Cc1ccccc1)C(=O)N1Cc2ccccc2C[C@H]1c1nc(-c2ccccc2)c[nH]1"
Response given: 2.42

Challenge: Same thing, different compound: "N[C@@H](Cc1ccccc1)C(=O)N1CCCC[C@H]1c1nc(-c2ccccc2)c[nH]1"
Response given: 3.05

Challenge: Same thing, different compound: "Cc1cc(O)cc(C)c1C[C@H](N)C(=O)N1Cc2ccccc2C[C@H]1c1nc(-c2ccccc2)c(C)[nH]1"
Response given: -1.00
